molecular target: Nanoluciferase-BRD9 fusion protein (3×FLAG-NLuc-BRD9) in SYO-1 cells (Homo sapiens (Human)); test: SYO1 BRD9 NanoLuc degradation assay; assay type: cell-based; conditions: SYO-1 cells expressing 3×FLAG-NLuc-BRD9, 6 hours incubation, top dose 1 μM
Sequence (Q9H8M2 whole entry, the tested form may be a part): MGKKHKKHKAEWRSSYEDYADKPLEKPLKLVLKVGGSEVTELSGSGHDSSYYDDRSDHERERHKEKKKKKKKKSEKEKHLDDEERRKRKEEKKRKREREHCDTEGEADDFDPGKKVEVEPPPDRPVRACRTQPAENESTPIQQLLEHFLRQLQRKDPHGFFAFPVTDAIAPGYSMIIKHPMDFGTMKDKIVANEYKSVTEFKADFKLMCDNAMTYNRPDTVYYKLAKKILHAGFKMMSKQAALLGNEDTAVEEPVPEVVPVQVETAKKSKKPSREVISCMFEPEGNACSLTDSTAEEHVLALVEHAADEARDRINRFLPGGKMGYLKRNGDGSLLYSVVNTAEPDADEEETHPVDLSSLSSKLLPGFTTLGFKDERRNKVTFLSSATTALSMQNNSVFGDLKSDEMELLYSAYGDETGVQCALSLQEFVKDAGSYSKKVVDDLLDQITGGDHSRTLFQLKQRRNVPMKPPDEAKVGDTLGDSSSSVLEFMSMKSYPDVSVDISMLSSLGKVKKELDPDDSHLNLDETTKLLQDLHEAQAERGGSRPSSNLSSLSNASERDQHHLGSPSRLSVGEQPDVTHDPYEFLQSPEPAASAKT
pIC50: −log10 of the molar value.
Each record here notes measured pIC50.

| COMPOUND | pIC50 |
| --- | --- |
| CNC(=O)N1CCc2c(c(-c3cc(OC)c(CN4CC5CN(C(=O)CCOCCOc6ccc7c(c6)C(=O)N(C6CCC(=O)NC6=O)C7=O)CCC54)c(OC)c3)cn(C)c2=O)C1 (stereo not drawn) [Compound D295] | 6.00 to 7.00 |
| COc1cc(-c2cn(C)c(=O)c3c2CCN(C(=O)NCCCN2CCC4(C2)CN(c2ccc5c(c2)C(=O)N(C2CCC(=O)NC2=O)C5=O)C4)C3)cc(OC)c1CN(C)C (stereo not drawn) [Compound D207] | 7.00 to 8.00 |
| COc1cc(-c2cn(C)c(=O)c3c2CCN(C(=O)NCC2CC4(CCN(CCOc5ccc6c(c5)C(=O)N(C5CCC(=O)NC5=O)C6=O)CC4)CO2)C3)cc(OC)c1CN(C)C (stereo not drawn) [Compound D259] | 7.00 to 8.00 |
